The measured values listed here are drawn from ChEMBL document CHEMBL3785037.

assay: Cytotoxicity against mouse NIH/3T3 cells after 4 days by CellTiter-Glo luminiscence assay; type: cell-based, NIH3T3; details: read-out: TC50
Reported CC50 at 96 h maps to class as: lower band = under 4 µM, central band = from 4 µM up to 20 µM, upper band = 20 µM and over

# example entries with known answers
compound=Brc1ccc(-c2csc(N/N=C/c3ccccn3)n2)cc1 label_class="central band"
compound=NC(=S)N/N=C/CSc1cccc(Cl)c1 label_class="upper band"

[in] Band for the recorded CC50 at 96 h of `Clc1ccc(-c2csc(N/N=C/c3ccccn3)n2)cc1Cl` ?
[out] central band

[in] Tag the class for `COc1ccc(-c2csc(N/N=C(\C)c3ccc(Cl)c(Cl)c3)n2)cc1`
[out] upper band

[in] Given `O=[N+]([O-])c1cccc(-c2csc(N/N=C/c3ccccn3)n2)c1` , name the class its CC50 at 96 h places it in.
[out] upper band

[in] Which CC50 at 96 h category applies to `COc1ccc(SC/C=N/NC(N)=S)cc1` here?
[out] lower band

[in] Kindly identify the class of `Cc1sc(N/N=C/c2ccccn2)nc1-c1ccc(Br)cc1` .
[out] central band

[in] In plain terms, what class is `C(=N\Nc1nc(-c2cccc3ccccc23)cs1)/c1ccccn1` ?
[out] central band

[in] Categorize the following entry: `NC(=S)N/N=C/CSc1ccc(Br)cc1`
[out] upper band

[in] # bin lookup: classify `C/C(=N\Nc1nc(-c2cccc([N+](=O)[O-])c2)cs1)c1ccccn1` by its CC50 at 96 h
[out] lower band

[in] Where would `NC(=S)N/N=C/CSc1ccc(F)cc1` land among the classes by reported CC50 at 96 h?
[out] upper band

[in] Entry `C/C(=N\Nc1nc(-c2cccc3ccccc23)cs1)c1ccccn1` belongs to which category?
[out] central band

[in] State the band of `CC/C(=N\Nc1nc(-c2cccc([N+](=O)[O-])c2)cs1)c1cccc(Br)c1`
[out] upper band

[in] Dear colleague, I would appreciate it if you could identify the bin for `C(=N\Nc1nc(-c2ccccc2)cs1)/c1ccccn1` and reply at your convenience.
[out] central band

[in] For the record `C/C(=N\N=C(\N)S)c1ccc(Cl)c(Cl)c1` , report the class its CC50 at 96 h corresponds to.
[out] central band

[in] Which class holds `C/C(=N\Nc1nc(-c2ccc(Cl)cc2Cl)cs1)c1ccccn1` ?
[out] lower band

----------
experiment: Cytotoxicity against mouse NIH/3T3 cells after 4 days by CellTiter-Glo luminiscence assay; type: cell-based, NIH3T3; conditions: read-out: TC50
We label by threshold. Values of CC50 at 96 h strictly beneath 20 µM are yes. Values of 20 µM and up are no.

smiles_text=NC(=S)N/N=C/CSc1ccccc1 label_class=yes

[in] For `C/C(=N\Nc1nc(C)cs1)c1ccc(Cl)c(Cl)c1` , is the recorded CC50 at 96 h below the cut-off of 20 µM?
[out] no

[in] Lab note: CC50 at 96 h threshold 20 µM. Does this molecule come in strictly under it? `NC(=S)N/N=C/CSc1ccc(Cl)cc1`
[out] no

----------
assay: Selectivity index, ratio of TC50 for mouse NIH/3T3 cells to IC50 for amastigotes stage of recombinant Trypanosoma cruzi Tulahuen expressing beta galactosidase infected in NIH/3T3 cells; format: toxicity, cell-based; details: read-out: Selectivity Index
Assay Endpoint: selectivity ratio

Quick batch: selectivity ratio for everything below.
1. O=[N+]([O-])c1cccc(-c2csc(N/N=C/c3ccccn3)n2)c1
2. Clc1ccc(-c2csc(N/N=C/c3ccccn3)n2)cc1
3. NC(=S)N/N=C/CSc1cccc(Cl)c1

[out]
[23.5, 26.9, 28.1]

----------
Record form. Attribute: CC50 at 96 h. Fill in for each entry.
assay: Cytotoxicity against mouse NIH/3T3 cells after 4 days by CellTiter-Glo luminiscence assay; assay type: cell-based, NIH3T3; conditions: read-out: TC50

Answered cases to consult:
compound=C/C(=N\Nc1nc(-c2ccccc2)cs1)c1ccccn1 data_value="3.89 µM"
compound=CNC(=S)N/N=C(\C)c1ccc(Cl)c(Cl)c1 data_value="> 50.1 µM"
compound=Clc1ccc(-c2csc(N/N=C/c3ccccn3)n2)c(Cl)c1 data_value="14.5 µM"
compound="CCC1S/C(=N/N=C(\\C)c2ccc(Cl)c(Cl)c2)N(c2ccccc2)C1=O (centres undefined)" data_value="> 50.1 µM"
compound=Clc1ccc(-c2csc(N/N=C/c3ccccn3)n2)cc1 data_value="> 50.1 µM"
compound=Cc1ccc(C)c(SC/C=N/NC(N)=S)c1 data_value="20.9 µM"

For each listed entry, give its CC50 at 96 h.
1. CC/C(=N\Nc1nc(-c2ccccc2)cs1)c1cccc(Br)c1
2. CC/C(=N\Nc1nc(-c2ccc(C)cc2)cs1)c1cccc(Br)c1
3. CC/C(=N\Nc1nc(-c2ccc(OC)cc2)cs1)c1cccc(Br)c1

[out]
1: 26.3 µM; 2: > 50.1 µM; 3: > 50.1 µM

Dear colleague, could you please provide CC50 at 96 h for the compounds listed below?
1. COc1ccc(-c2csc(N/N=C(\C)c3ccccn3)n2)cc1
2. C/C(=N\Nc1nc(-c2ccccc2)c(C)s1)c1ccc(Cl)c(Cl)c1
3. O=[N+]([O-])c1ccc(-c2csc(N/N=C/c3ccccn3)n2)cc1
4. C/C(=N\N=C1\SC(C(C)C)C(=O)N1c1ccccc1)c1ccc(Cl)c(Cl)c1 (centres undefined)
5. C/C(=N\Nc1nc(-c2ccc(Br)cc2)cs1)c1ccccn1

[out]
["3.47 µM", "28.2 µM", "> 50.1 µM", "> 50.1 µM", "3.98 µM"]

----------
So I've got a bunch of compounds here, and I need their log10 CC50 at 96 h values.
assay: Cytotoxicity against mouse NIH/3T3 cells after 4 days by CellTiter-Glo luminiscence assay; assay type: cell-based, NIH3T3; details: read-out: TC50
All values: log10 CC50 at 96 h [µM].

The examples below pair each entry with its known result.
smiles_text=C/C(=N\Nc1nc(-c2ccc(C)cc2)cs1)c1ccccn1 assay_endpoint="log10 CC50 at 96 h" data_value=0.65
smiles_text=C/C(=N\Nc1nc(-c2ccc(Cl)c(Cl)c2)cs1)c1ccccn1 assay_endpoint="log10 CC50 at 96 h" data_value=0.37
smiles_text=C/C(=N\Nc1nc(-c2ccc(Cl)cc2)cs1)c1ccccn1 assay_endpoint="log10 CC50 at 96 h" data_value=0.72
smiles_text=COc1ccc(-c2csc(N/N=C/c3ccccn3)n2)cc1 assay_endpoint="log10 CC50 at 96 h" data_value=1.06

[in] Report log10 CC50 at 96 h for `CC/C(=N\Nc1nc(-c2ccc(Br)cc2)c(C)s1)c1cccc(Br)c1` please.
[out] 1.52

----------
experiment: Cytotoxicity against mouse NIH/3T3 cells after 4 days by CellTiter-Glo luminiscence assay; assay type: cell-based, NIH3T3; conditions: read-out: TC50
Assay Endpoint: log10 of CC50 at 96 h (log10 of the value in µM)
Values below are the log10 of the recorded CC50 at 96 h, with µM as the unit.

Look over these answered cases.
smiles_text=C/C(=N\Nc1nc(-c2ccc(F)cc2)cs1)c1ccc(Cl)c(Cl)c1 assay_endpoint="log10 of CC50 at 96 h" data_value=1.45
smiles_text=Cc1ccc(-c2csc(N/N=C/c3ccccn3)n2)cc1 assay_endpoint="log10 of CC50 at 96 h" data_value=1.64
smiles_text=C/C(=N\Nc1nc(-c2ccc(Br)cc2)c(C)s1)c1ccccn1 assay_endpoint="log10 of CC50 at 96 h" data_value=0.30
smiles_text=C/C(=N\Nc1nc(-c2ccc(F)cc2)cs1)c1ccccn1 assay_endpoint="log10 of CC50 at 96 h" data_value=0.69

Consider the additional compound presented here.
[in] Returns the measured log10 of CC50 at 96 h for the input compound. Input: `C/C(=N\Nc1nc(-c2ccc([N+](=O)[O-])cc2)cs1)c1ccccn1`
[out] 1.32

----------
assay: Cytotoxicity against mouse NIH/3T3 cells after 4 days by CellTiter-Glo luminiscence assay; type: cell-based, NIH3T3; conditions: read-out: TC50
Please go through the items and note down their CC50 at 96 h.

The cases that follow already have their CC50 at 96 h on record.
compound=NC(=S)N/N=C/CSc1cc(Cl)ccc1Cl data_value="> 50.1 µM"
compound="C/C(=N\\N=C1\\SC(C)C(=O)N1c1ccccc1)c1ccc(Cl)c(Cl)c1 (stereo not drawn)" data_value="> 50.1 µM"

Attention now turns to another entry.
[in] Entry under review: `Cc1ccccc1SC/C=N/NC(N)=S` . Reported CC50 at 96 h?
[out] > 50.1 µM
